Target: T1, human DLL3 (ACRO, DLL3-H52H4) (human, UniProt Q9NYJ7 27-492)
T1 construct: Bought
T1 sequence: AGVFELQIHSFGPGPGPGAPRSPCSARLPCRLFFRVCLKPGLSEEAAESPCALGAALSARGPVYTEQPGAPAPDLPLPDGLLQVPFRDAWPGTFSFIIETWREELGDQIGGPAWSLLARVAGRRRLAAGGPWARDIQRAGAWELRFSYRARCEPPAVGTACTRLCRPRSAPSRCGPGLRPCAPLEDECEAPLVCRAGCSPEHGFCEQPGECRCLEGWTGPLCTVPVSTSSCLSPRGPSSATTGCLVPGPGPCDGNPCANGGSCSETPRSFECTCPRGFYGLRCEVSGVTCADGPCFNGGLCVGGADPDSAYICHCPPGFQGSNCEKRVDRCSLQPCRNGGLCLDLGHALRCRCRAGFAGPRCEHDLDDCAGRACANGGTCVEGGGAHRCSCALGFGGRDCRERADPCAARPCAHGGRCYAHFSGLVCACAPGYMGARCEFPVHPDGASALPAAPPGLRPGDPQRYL
Assay: SPR Biacore 8K, Ab captured on Protein A
testReadout: koff
Please make sure the unit comes right after the number.

binder	testReadout	reportedResult
hu110L2H2 (antibody, human IgG1, kappa, V domains shown) VH: EVQLVQSGAEVKKPGASVKVSCKTSGYTFTDYYMNWVRQAPGQSLEWMGIINPYNGGTSYTQKFKGRVTITVDKSASTAYMELSSLRSEDTAVYYCARHFYDSSYLTYSTMDYWGQGTTVTVSS VL: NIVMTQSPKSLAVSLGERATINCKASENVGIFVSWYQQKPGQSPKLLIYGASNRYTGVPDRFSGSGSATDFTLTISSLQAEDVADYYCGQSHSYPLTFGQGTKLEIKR	koff	6.25e-05 s⁻¹
hu98L3H1 (antibody, human IgG1, kappa, V domains shown) VH: EVQLVESGGGLVQPGGSLRLSCAASGFTFSDYGIHWVRQAPGKGLEWVAYISSGGYTIYYADTVKGRFTISRDNAKNSLYLQMNSLRAEDTAVYYCARGDYDDIFYTMDYWGQGTTVTVSS VL: DIQMTQSPSSLSASVGDRVTITCRASRDITKFLNWYQQKPGGAVKLLIYYTSRLHSGVPSRFSGSGSGTDYTLTISSLQPEDFATYYCQQGNTLPWTFGGGTKVEIKR	koff	0.000372 s⁻¹

Continue with the binder presented below.
The recorded koff for hu30L2H5 (antibody, human IgG1, kappa, V domains shown) VH: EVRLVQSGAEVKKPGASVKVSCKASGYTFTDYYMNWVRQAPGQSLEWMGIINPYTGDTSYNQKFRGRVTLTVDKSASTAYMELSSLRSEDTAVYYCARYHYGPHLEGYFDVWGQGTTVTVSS VL: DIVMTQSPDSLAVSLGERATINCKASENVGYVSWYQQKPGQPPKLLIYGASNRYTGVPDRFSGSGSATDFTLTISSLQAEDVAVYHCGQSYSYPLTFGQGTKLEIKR is 0.000907 s⁻¹

Taken from patent US20250376519A1.
